System: SKOV3
PROTOCOL SUMMARY: Cellular proliferation assay (Alamar blue), SKOV3
Type: cell-based
RUN PARAMETERS: Homo sapiens, SK-OV-3, SKOV3 cells, 72 hours with compound, 10% FCS, read-out: pIC50 SKOV3 (converted)
ENDPOINT LABEL: IC50

Q: Using SKOV3 as the test system, report measured IC50 of COc1ccc2cc1OCCCC(=O)N(C)CCCNc1ncnc3c1/C(=C/N2)C(=O)N3 [Compound 9] .
A: 0.339 µM

Q: Using SKOV3 as the test system, report measured IC50 of CN1CCN(c2ccc3cc2CN(C)CCCC(=O)N(C)CCNc2ncnc4c2/C(=C/N3)C(=O)N4)CC1 [Compound 116] .
A: > 10 µM

Q: Using SKOV3 as the test system, report measured IC50 of COc1ccc2cc1OCCCC(=O)N(C)CCN(C)C1CCN(CC1)c1ncnc3c1/C(=C/N2)C(=O)N3 [Compound 34] .
A: > 10 µM

----------
TESTED TARGET: GSK3β (h) (Homo sapiens, UniProt P49841)
Sequence (P49841 whole entry): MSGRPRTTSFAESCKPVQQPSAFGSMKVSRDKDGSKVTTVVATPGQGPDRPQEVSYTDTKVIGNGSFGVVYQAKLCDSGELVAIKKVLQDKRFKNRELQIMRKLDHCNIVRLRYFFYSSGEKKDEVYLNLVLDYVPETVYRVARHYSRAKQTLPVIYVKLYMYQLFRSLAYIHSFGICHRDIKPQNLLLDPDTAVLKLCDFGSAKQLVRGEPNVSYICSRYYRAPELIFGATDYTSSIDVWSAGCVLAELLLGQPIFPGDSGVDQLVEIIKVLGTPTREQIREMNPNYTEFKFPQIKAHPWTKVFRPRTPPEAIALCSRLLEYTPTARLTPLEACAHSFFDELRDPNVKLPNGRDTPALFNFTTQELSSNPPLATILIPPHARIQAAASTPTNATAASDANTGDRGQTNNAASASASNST
PROTOCOL SUMMARY: GSK-3β human kinase assay (SPA)
Format: biochemical
RUN PARAMETERS: read-out: GSK3B pIC50 (converted)
Protocol: The in vitro inhibition of a panel of kinases was assessed using either the scintillation proximity assay (SPA) as described by Cook, N. D. et al., Advances in Experimental Medicine and Biology (1991), 36; p. 525-528; or the Fluorescence Resonance Energy Transfer (FRET) technology as described by Rodems, S. M. et al., Assay Drug Develop. Technol. (2002), 1; p. 9-19. […]
Lab note - cut at 800 nM for IC50: Fulfilled if strictly below, Not fulfilled if not.

Previously resolved entries follow.
>>> discrete_label("CN1CCCCNc2ncnc3c2/C(=C/Nc2cccc(c2)OCC1=O)C(=O)N3 [Compound 143]")
"Fulfilled"
>>> discrete_label("CN1CCNC(=O)CCCCCCOc2cccc(c2)N/C=C2\\C(=O)Nc3ncnc1c32 [Compound 36]")
"Not fulfilled"
>>> discrete_label("CN1CCCNc2ncnc3c2/C(=C/Nc2ccc(NS(=O)(=O)c4ccccc4)c(c2)OCCCC1=O)C(=O)N3 [Compound 109]")
"Fulfilled"
>>> discrete_label("CN1CCNC(=O)CCCOc2cccc(c2)N/C=C2\\C(=O)Nc3ncnc1c32 [Compound 40]")
"Not fulfilled"
>>> discrete_label("COc1cc2cc(c1OC)CN(C)CC(=O)N(C)CCNc1ncnc3c1/C(=C/N2)C(=O)N3 [Compound 123]")
"Not fulfilled"

Q: Could you please tell me whether IC50 recorded for O=C1Nc2ncnc3c2/C1=C/Nc1ccc(Cl)c(c1)OCCN1C[C@H](O)C[C@@H]1C(=O)N1CCN3CC1 [Compound 196] is less than 800 nM?
A: Not fulfilled

Q: Could you please tell me whether IC50 recorded for CN1CCNc2ncnc3c2/C(=C/Nc2ccc(Cl)c(c2)OCCCCC1=O)C(=O)N3 [Compound 56] is less than 800 nM?
A: Fulfilled

Q: Could you please tell me whether IC50 recorded for CN1CCCNc2ncnc3c2/C(=C/Nc2ccc(Cl)c(c2)OCCCCCC1=O)C(=O)N3 [Compound 64] is less than 800 nM?
A: Fulfilled

Q: Could you please tell me whether IC50 recorded for CN1CCCC(=O)NCC#Cc2cccc3c2/C(=C/Nc2cccc(c2)S(=O)(=O)N(C)CC1=O)C(=O)N3 [Compound 3] is less than 800 nM?
A: Not fulfilled

Q: Could you please tell me whether IC50 recorded for CN1CC(=O)N(C)CCCCNc2ncnc3c2/C(=C/Nc2cccc(c2)C1)C(=O)N3 [Compound 154] is less than 800 nM?
A: Fulfilled

----------
TESTED TARGET: GSK3β (h) (Homo sapiens, UniProt P49841)
PROTOCOL SUMMARY: GSK-3β human kinase assay (SPA)
Format: biochemical
RUN PARAMETERS: read-out: GSK3B pIC50 (converted)
ENDPOINT LABEL: log10 of IC50 (log10 of the value in nM)
# values: log10(IC50), units nM

Example cases with answers are listed next.
>>> reported("CN1CCCCCC(=O)N(C)CCNc2ncnc3c2/C(=C/Nc2ccc(N4CCOCC4)c(c2)C1)C(=O)N3")
3.80
>>> reported("COCCN1CCCOc2cccc(c2)N/C=C2\\C(=O)Nc3ncnc(c32)NCCN(C)C(=O)C1")
3.40
>>> reported("COc1ccc2cc1CN(C)CC(=O)N(C)CCCCNc1ncnc3c1/C(=C/N2)C(=O)N3")
3.21
>>> reported("CN1CCCC(=O)N(C)CCCNc2ncnc3c2/C(=C/Nc2ccc(N4CCOCC4)c(c2)C1)C(=O)N3")
1.87

Q: Read the entry `CN1CCNc2ncnc3c2/C(=C/Nc2cccc(c2)CN(C)CC(=O)N(C)CC1)C(=O)N3` and write its reported log10 of IC50.
A: 2.48

Q: Read the entry `CN1CCCNc2ncnc3c2/C(=C/Nc2ccc(NC(=O)c4ccccc4)c(c2)OCCCC1=O)C(=O)N3` and write its reported log10 of IC50.
A: 3.19

Q: Read the entry `COc1ccc2cc1OCC(=O)NCCN1CCN(CC1)c1ncnc3c1/C(=C/N2)C(=O)N3` and write its reported log10 of IC50.
A: 3.61

Q: Read the entry `CN1CCNc2ncnc3c2/C(=C/Nc2cccc(c2)OCCCN(C)[C@H](CO)C1=O)C(=O)N3` and write its reported log10 of IC50.
A: 2.76

Q: Read the entry `CN1CC(=O)N(CCN2CCOCC2)CCC(=O)NCC#Cc2cccc3c2/C(=C/Nc2cccc(c2)S1(=O)=O)C(=O)N3` and write its reported log10 of IC50.
A: 3.91

----------
Each entry below carries its reported AuroraB pIC50.
TESTED TARGET: AuroraB (h) (Homo sapiens)
Sequence (Q96GD4 whole entry): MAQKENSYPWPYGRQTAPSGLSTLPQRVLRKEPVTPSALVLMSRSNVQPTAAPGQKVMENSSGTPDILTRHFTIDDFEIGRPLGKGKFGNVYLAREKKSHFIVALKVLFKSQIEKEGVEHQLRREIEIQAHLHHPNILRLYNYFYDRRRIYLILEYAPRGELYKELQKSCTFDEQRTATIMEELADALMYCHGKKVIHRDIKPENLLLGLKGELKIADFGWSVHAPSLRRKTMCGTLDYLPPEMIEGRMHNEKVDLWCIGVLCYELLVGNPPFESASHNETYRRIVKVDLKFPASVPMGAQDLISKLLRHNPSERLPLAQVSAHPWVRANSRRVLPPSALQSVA
PROTOCOL SUMMARY: Aurora-B human kinase assay (SPA)
Assay type: biochemical

Example cases with answers are listed next.
>>> reported("O=C1Nc2ncnc3c2C1=CNc1cc(ccc1Cl)OCCCCCC(=O)N1CCN3CC1 (mixture of isomers) [Compound 19]")
"<5"
>>> reported("COc1ccc2cc1CN(C)CCCCCCC(=O)N(C)CCCNc1ncnc3c1C(=CN2)C(=O)N3 (mixture of isomers) [Compound 68]")
"<5"
>>> reported("COc1ccc2cc1CN(C)CCCCC(=O)N(C)CCCN(C)c1ncnc3c1C(=CN2)C(=O)N3 (mixture of isomers) [Compound 87]")
"<5"

With those in mind, consider the next compound.
Q: Read the entry CN1CCN(c2ccc3cc2OCCCC(=O)N(C)CCNc2ncnc4c2C(=CN3)C(=O)N4)CC1 (mixture of isomers) [Compound 137] and write its reported AuroraB pIC50.
A: ~5

----------
Each entry below carries its reported IC50.
TESTED TARGET: PLK4 (h) (Homo sapiens)
Sequence (O00444 whole entry): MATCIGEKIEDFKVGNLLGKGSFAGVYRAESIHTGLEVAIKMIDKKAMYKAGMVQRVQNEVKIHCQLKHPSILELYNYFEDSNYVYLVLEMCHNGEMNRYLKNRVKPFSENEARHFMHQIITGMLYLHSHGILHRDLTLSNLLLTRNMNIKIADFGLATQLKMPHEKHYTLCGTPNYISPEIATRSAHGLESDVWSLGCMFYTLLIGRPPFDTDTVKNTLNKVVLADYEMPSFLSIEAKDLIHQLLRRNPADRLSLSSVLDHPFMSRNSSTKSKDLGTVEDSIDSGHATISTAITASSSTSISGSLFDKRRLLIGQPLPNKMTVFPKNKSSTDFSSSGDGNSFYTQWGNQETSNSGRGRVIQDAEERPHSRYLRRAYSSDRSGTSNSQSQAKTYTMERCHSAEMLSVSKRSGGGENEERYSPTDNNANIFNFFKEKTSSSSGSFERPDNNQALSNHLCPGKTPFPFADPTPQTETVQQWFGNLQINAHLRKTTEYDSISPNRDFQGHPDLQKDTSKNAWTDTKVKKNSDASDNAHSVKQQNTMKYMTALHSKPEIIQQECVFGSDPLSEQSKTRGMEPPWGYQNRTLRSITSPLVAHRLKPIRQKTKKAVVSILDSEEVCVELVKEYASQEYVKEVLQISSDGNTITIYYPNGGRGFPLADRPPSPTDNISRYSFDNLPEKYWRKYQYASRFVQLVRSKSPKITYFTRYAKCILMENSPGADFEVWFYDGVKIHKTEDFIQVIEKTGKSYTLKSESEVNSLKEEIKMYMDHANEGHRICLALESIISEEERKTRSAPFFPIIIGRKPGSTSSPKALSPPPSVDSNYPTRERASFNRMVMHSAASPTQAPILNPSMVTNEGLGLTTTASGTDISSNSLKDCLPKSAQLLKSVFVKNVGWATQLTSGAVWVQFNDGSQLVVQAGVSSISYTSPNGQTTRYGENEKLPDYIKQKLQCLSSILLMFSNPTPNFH
PROTOCOL SUMMARY: PLK-4 human kinase assay (SPA)
Format: biochemical
RUN PARAMETERS: read-out: PLK4 pIC50 (converted)

Example cases with answers are listed next.
>>> reported("COCCN1CCOc2cccc(c2)N/C=C2\\C(=O)Nc3ncnc(c32)NCCCN(C)C(=O)C1")
"0.589 µM"
>>> reported("COc1ccc2cc1CN(C)CCCCCCC(=O)NCCN(C)c1ncnc3c1/C(=C/N2)C(=O)N3")
"> 10 µM"
>>> reported("CN1CCCCCCC(=O)NCCN(C)c2ncnc3c2/C(=C/Nc2cccc(c2)C1)C(=O)N3")
"> 10 µM"

Q: Read the entry `O=C1Nc2ncnc3c2/C1=C/Nc1ccc(c(F)c1)OCCCCCC(=O)N1CCN3CC1` and write its reported IC50.
A: > 10 µM

Q: Read the entry `CN1CCNc2ncnc3c2/C(=C/Nc2cc(cc(C(F)(F)F)c2)OCCCC1=O)C(=O)N3` and write its reported IC50.
A: > 10 µM

Q: Read the entry `COc1cc2cc(c1OC)CN(C)CCCC(=O)N(C)CCCNc1ncnc3c1/C(=C/N2)C(=O)N3` and write its reported IC50.
A: 6.17 µM

Q: Read the entry `N#Cc1ccc2cc1OCCCC(=O)N1CCN(CC1)c1ncnc3c1/C(=C/N2)C(=O)N3` and write its reported IC50.
A: > 10 µM

----------
TESTED TARGET: CDK1/CyclinB (h) (Homo sapiens)
Sequence (P06493 whole entry): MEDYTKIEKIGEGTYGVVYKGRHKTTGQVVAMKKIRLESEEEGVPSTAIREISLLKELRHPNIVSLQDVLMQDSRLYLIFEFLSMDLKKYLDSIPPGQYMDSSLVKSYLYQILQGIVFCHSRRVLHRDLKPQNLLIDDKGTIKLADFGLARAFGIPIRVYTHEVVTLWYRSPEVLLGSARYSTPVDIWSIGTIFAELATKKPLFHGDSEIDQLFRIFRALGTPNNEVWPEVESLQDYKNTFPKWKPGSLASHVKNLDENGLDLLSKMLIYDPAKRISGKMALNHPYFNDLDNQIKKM
Sequence (P14635 whole entry partner): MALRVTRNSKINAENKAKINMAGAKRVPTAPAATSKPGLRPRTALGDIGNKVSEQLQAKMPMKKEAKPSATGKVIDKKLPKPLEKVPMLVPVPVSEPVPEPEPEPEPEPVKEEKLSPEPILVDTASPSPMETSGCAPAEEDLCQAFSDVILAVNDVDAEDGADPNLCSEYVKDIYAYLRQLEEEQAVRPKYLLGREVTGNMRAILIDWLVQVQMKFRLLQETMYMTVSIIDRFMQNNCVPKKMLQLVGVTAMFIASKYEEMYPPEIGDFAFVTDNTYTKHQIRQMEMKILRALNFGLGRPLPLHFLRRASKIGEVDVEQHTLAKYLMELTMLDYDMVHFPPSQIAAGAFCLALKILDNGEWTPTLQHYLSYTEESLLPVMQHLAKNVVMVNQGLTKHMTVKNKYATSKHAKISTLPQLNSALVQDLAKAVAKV
PROTOCOL SUMMARY: CDK1/CyclinB human kinase assay (FRET)
Format: biochemical
RUN PARAMETERS: read-out: CDK1 pIC50 (converted)
ENDPOINT LABEL: IC50

>>> reported("CN1CCNC(=O)CCCCCCOc2cccc(c2)N/C=C2\\C(=O)Nc3ncnc1c32")
"> 10 µM"
>>> reported("COc1cc2cc(c1OC)CN(C)CC(=O)N(C)CCNc1ncnc3c1/C(=C/N2)C(=O)N3")
"> 10 µM"
>>> reported("CN1CCNc2ncnc3c2/C(=C/Nc2cc(cc(C(F)(F)F)c2)OCCCC1=O)C(=O)N3")
"> 10 µM"
>>> reported("CN1CCNc2ncnc3c2/C(=C/Nc2cccc(c2)CN(C)CC(=O)N(C)CC1)C(=O)N3")
"> 10 µM"
>>> reported("COc1ccc2cc1CN(C)CCCCCC(=O)NCCN(C)c1ncnc3c1/C(=C/N2)C(=O)N3")
"> 10 µM"

Q: Read the entry `CN1CCN(c2ccc3cc2CN(C)CCCCC(=O)N(C)CCNc2ncnc4c2/C(=C/N3)C(=O)N4)CC1` and write its reported IC50.
A: > 10 µM

Q: Read the entry `CN1CCCNc2ncnc3c2/C(=C/Nc2cccc(c2)OCCCCCCC1=O)C(=O)N3` and write its reported IC50.
A: > 10 µM

Q: Read the entry `COc1cc2cc(c1OC)CN(C)CCCCC(=O)N(C)CCCNc1ncnc3c1/C(=C/N2)C(=O)N3` and write its reported IC50.
A: 1.15 µM

Q: Read the entry `COc1ccc2cc1OCCCCCC(=O)N(C)CCCNc1ncnc3c1/C(=C/N2)C(=O)N3` and write its reported IC50.
A: 2.34 µM

Q: Read the entry `COc1cc2cc(c1OC)CN(C)CC(=O)N(C)CCCCNc1ncnc3c1/C(=C/N2)C(=O)N3` and write its reported IC50.
A: > 10 µM
